Target: Neuronal acetylcholine receptor subunit alpha-7 (Rattus norvegicus)
Sequence (Q05941 whole entry): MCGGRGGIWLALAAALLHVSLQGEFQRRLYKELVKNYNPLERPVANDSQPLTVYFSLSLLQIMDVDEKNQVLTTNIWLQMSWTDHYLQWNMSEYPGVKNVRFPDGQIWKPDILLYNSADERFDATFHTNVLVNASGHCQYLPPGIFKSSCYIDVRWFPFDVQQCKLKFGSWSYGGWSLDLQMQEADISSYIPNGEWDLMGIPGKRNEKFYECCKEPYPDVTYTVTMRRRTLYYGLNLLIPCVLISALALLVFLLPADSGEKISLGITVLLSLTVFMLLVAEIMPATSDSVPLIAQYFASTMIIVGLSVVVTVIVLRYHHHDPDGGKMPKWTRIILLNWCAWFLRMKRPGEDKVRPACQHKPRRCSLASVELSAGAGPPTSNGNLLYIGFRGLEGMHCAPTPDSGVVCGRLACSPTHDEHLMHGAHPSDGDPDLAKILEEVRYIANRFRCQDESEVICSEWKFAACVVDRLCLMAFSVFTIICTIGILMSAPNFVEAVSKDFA
Test: Agonist activity at rat alpha7 nAChR expressed in HEK293 cells assessed as calcium ion influx by FRET assay
Assay type: cell-based
PARAMETER: log10(EC50) (log10 of the value in nM)

- MOLECULE: "COc1cccc(-c2cc(=O)n(CC3CCCNC3)c3ccccc23)c1 (racemic)"
  ENDPOINT VALUE: 3.11
- MOLECULE: "Cc1ccccc1-c1cc(=O)n(CC2CCCNC2)c2ccccc12 (racemic)"
  ENDPOINT VALUE: 3.18
- MOLECULE: "CS(=O)(=O)NCc1cccc(-c2cc(=O)n(CC3CCCNC3)c3ccccc23)c1 (racemic)"
  ENDPOINT VALUE: 1.89
- MOLECULE: "CC(=O)NCc1cccc(-c2cc(=O)n(CC3CN4CCC3CC4)c3ccccc23)c1 (racemic)"
  ENDPOINT VALUE: 1.51
- MOLECULE: "N#Cc1c(-c2ccccc2)c2ccccc2n(CCCN2CCCC2)c1=O"
  ENDPOINT VALUE: 3.97
- MOLECULE: "O=c1cc(-c2cccc3[nH]ccc23)c2ccccc2n1CC1CN2CCC1CC2 (racemic)"
  ENDPOINT VALUE: 1.36
- MOLECULE: "CN(C)CCCn1c(=O)cc(-c2ccccc2)c2ccccc21"
  ENDPOINT VALUE: 3.45
